- methodDescription: chemical genetic growth profiling, strain panel (AID 1159580);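 further: tested at 20 µM; growth read once vehicle control cultures reached saturation at 30 °C; 1 = growth at the plate median or of vehicle wells; lower values mean less growth of the strain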
- experimentalSetup: S. cerevisiae deletion strains, growth OD, locus YNL128W, strain TEP1, stronger effect = lower value
Screen size: about 5,500 compounds; about 2,000 (36%) were called active. About 18% were inconclusive and are not listed. The list shows a part of the results.
property: normalized growth
One number for each entry.

Please review the following examples before continuing.
normalized growth for `C[C@]12C=CC(=O)C=C1CC[C@@H]1C2=CC[C@]2(C)[C@@H](C(=O)CN3CCN(c4cc(N5CCCC5)nc(N5CCCC5)n4)CC3)CC[C@@H]12` ?
1.03

normalized growth for `COc1ccc2cc(CCC(C)=O)ccc2c1` ?
0.963

normalized growth for `CS(=O)(=O)c1ccc([C@@H](O)[C@@H](CO)NC(=O)C(Cl)Cl)cc1` ?
0.975

normalized growth for `NNC(=S)Nc1ccc2c(c1)OCCO2` ?
0.976

normalized growth for `C[n+]1ccccc1/C=N/O` ?
1.02

Each of the following entries comes with a recorded value; kindly state normalized growth for each.
1. Cc1c(C)c2c(c(C)c1O)CCC(C)(CN1CCN(c3cc(N4CCCC4)nc(N4CCCC4)n3)CC1)O2 (centres undefined)
2. CC(C)CC1NC(=O)CNC1=O (centres undefined)

1: 1.07; 2: 0.969

Each of the following entries comes with a recorded value; kindly state normalized growth for each.
1. CCCN(CCC)S(=O)(=O)c1ccc(C(=O)O)cc1
2. CCCOc1ccc2nc(NC(=O)OC)[nH]c2c1
3. CC1=CC(=O)c2ccccc2C1=O
4. Cc1cccc(C)c1OCC(N)C(C)C (centres undefined)

[1.01, 0.975, 0.0609, 0.988]

###

- methodDescription: chemical genetic growth profiling, strain panel (AID 1159580)
- experimentalSetup: S. cerevisiae deletion strains, growth OD, locus YDL035C, strain GPR1, stronger effect = lower value
Among all 5,500 compounds or so, about 2,000 (36%) were called active. Another 18% or so got no clear call; they are omitted. This is one part of the list.
Would you kindly list normalized growth for each of these compounds?
Numbers only.

Please review the following examples before continuing.
normalized growth for CC(C)CCCC(C)C1CCC2C3CC(=O)[C@H]4C[C@@H](O)CC[C@]4(C)C3CC[C@]12C (stereo not given in full) ?
1.01

normalized growth for CC(C)CCCC(C)[C@H]1CCC2C3CC=C4CC(=O)CC[C@]4(C)C3CC[C@@]21C (stereo not given in full) ?
0.953

normalized growth for O=P1(N(CCCl)CCCl)NCCCO1 (stereo not given) ?
1.02

normalized growth for CC(C)CCCC(C)[C@H]1CCC2C3CC[C@@H]4C[C@H](O)CC[C@]4(C)C3CC[C@@]21C (stereo not given in full) ?
1.02

Could you now look at the following compound, please?
normalized growth for CC(C)CCCC(C)C1CCC2C3CC[C@H]4C[C@@H](O)CC[C@]4(C)C3CC[C@]12C (stereo not given in full) ?
1

###

- methodDescription: chemical genetic growth profiling, strain panel (AID 1159580)
- experimentalSetup: S. cerevisiae deletion strains, growth OD, locus YOR144C, strain elg1, stronger effect = lower value
About 2,000 (36%) of roughly 5,500 compounds were called active. Inconclusive results (about 18%) are left out. This is one part of the list.
Would you kindly list normalized growth for each of these molecules?
Give bare numbers.

Each of the following entries comes with a recorded value; kindly state normalized growth for each.
1. CC(=O)O[C@H]1CC[C@@]2(C)C(=CC(=O)C3C4CCC(C(C)CCCC(C)C)[C@@]4(C)CCC32)C1 (some centres undefined)
2. CC(=O)O[C@@H]1CC2C(C)(C)[C@H](O)C=C[C@]2(C)C2CC[C@]3(C)C(=CC(=O)O[C@H]3c3ccoc3)[C@@]21C (some centres undefined)
3. C=C1C[C@]23C[C@@]1(O)CC[C@H]2[C@@]12C=C[C@H](O)[C@@](C)(C(=O)O1)[C@H]2[C@@H]3C(=O)O
4. CC(C)CCCC(C)[C@H]1CCC2C3CC=C4C[C@@H](O)CC[C@]4(C)C3CC[C@@]21C (some centres undefined)
5. CC(C)CCCC(C)C1CCC2C3CC[C@H]4C[C@@H](O)CC[C@]4(C)C3CC[C@]12C (some centres undefined)
6. COc1cc(C(C)=O)cc(OC)c1O
7. CC(=O)OC1CCC2(C)C(CC(OC(C)=O)C3(C)C4=CC(=O)OC(c5ccoc5)C4(C)CCC23)C1(C)C (centres undefined)

1. 0.99
2. 0.999
3. 0.991
4. 0.986
5. 1
6. 0.997
7. 0.994

Each of the following entries comes with a recorded value; kindly state normalized growth for each.
1. NCC(N)C(=O)c1ccccc1 (centres undefined)
2. NCC(=O)c1ccccc1

1. 0.996
2. 0.999

Each of the following entries comes with a recorded value; kindly state normalized growth for each.
1. CC(=O)O[C@@H]1CC2C(C)(C)C(=O)C=C[C@]2(C)C2CC[C@]3(C)C(=CC(=O)O[C@H]3c3ccoc3)[C@@]21C (some centres undefined)
2. C[n+]1ccccc1/C=N/O

[0.979, 0.994]

###

- methodDescription: chemical genetic growth profiling, strain panel (AID 1159580)
- experimentalSetup: S. cerevisiae deletion strains, growth OD, locus YGL227W, strain vid30, stronger effect = lower value
About 2,000 (36%) of roughly 5,500 compounds were called active. Not shown: some 18% with an inconclusive outcome. The list shows a part of the results.
Would you kindly list normalized growth for each of these compounds?
Give bare numbers.

normalized growth for `Cc1cc(=O)oc2cc(O)c(O)cc12` ?
1

Each of the following entries comes with a recorded value; kindly state normalized growth for each.
1. CC(=O)Oc1cccc(O)c1
2. C/C1=C/CC(C)(C)/C=C/C/C(C)=C/CC1
3. CC(C)=CCCC(C)[C@@H]1CC[C@]2(C)C3=C(CC[C@@]12C)C1(C)CC[C@H](O)C(C)(C)C1CC3 (stereo not given in full)

1: 1.02; 2: 0.978; 3: 1.07

###

Would you kindly list normalized growth for each of these compounds?
- methodDescription: chemical genetic growth profiling, strain panel (AID 1159580);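 further: tested at 20 µM; growth read once vehicle control cultures reached saturation at 30 °C; 1 = growth at the plate median or of vehicle wells; lower values mean less growth of the strain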
- experimentalSetup: S. cerevisiae deletion strains, growth OD, locus YER155C, strain BEM2 (second series), stronger effect = lower value
In all, about 5,500 compounds went through this assay and about 2,000 (36%) were called active. Inconclusive results (about 18%) are left out. The list shows a part of the results.
Answers are plain numbers.

Please review the following examples before continuing.
normalized growth for `CCOC(=O)[C@H](CCc1ccccc1)N[C@@H](C)C(=O)N1CCC[C@H]1C(=O)O` ?
1.02

normalized growth for `OC[C@H]1O[C@@H](O[C@@H]2[C@@H](CO)O[C@](O)(CO)[C@H]2O)[C@H](O)[C@@H](O)[C@H]1O` ?
1.03

normalized growth for `Cc1cn[nH]c1` ?
1.13

Others:
normalized growth for `OC[C@H]1O[C@@](CO)(O[C@@H]2O[C@H](CO)[C@@H](O)[C@H](O)[C@H]2O)[C@@H](O[C@@H]2O[C@H](CO)[C@@H](O)[C@H](O)[C@H]2O)[C@@H]1O` ?
1.03

###

Would you kindly list normalized growth for each of these molecules?
- methodDescription: chemical genetic growth profiling, strain panel (AID 1159580);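 further: tested at 20 µM; growth read once vehicle control cultures reached saturation at 30 °C; 1 = growth at the plate median or of vehicle wells; lower values mean less growth of the strain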
- experimentalSetup: S. cerevisiae deletion strains, growth OD, locus YNL233W, strain BNI4, stronger effect = lower value
Out of some 5,500 compounds screened, about 2,000 (36%) were called active. Another 18% or so got no clear call; they are omitted. The list shows a part of the results.
Numbers only.

Please review the following examples before continuing.
normalized growth for CC(=O)O[C@@H]1CC[C@@]2(C)C(C[C@@H](OC(C)=O)[C@@]3(C)C4=CC(=O)O[C@@H](c5ccoc5)[C@]4(C)CCC23)C1(C)C (some centres undefined) ?
0.993

normalized growth for CC(=O)O[C@H]1CC[C@@]2(C)C(C[C@@H](OC(C)=O)[C@@]3(C)C4=CC(=O)O[C@@H](c5ccoc5)[C@]4(C)CCC23)C1(C)C (some centres undefined) ?
1.02

normalized growth for CC(=O)O[C@@H]1CC2C(C)(C)C(=O)C=C[C@]2(C)C2CC[C@]3(C)C(=CC(=O)O[C@H]3c3ccoc3)[C@@]21C (some centres undefined) ?
1.02

Could you now look at the following molecule, please?
normalized growth for `N[C@@H](CCC(=O)N[C@@H](CS)C(=O)NCC(=O)O)C(=O)O` ?
0.989

###

- methodDescription: chemical genetic growth profiling, strain panel (AID 1159580);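 further: tested at 20 µM; growth read once vehicle control cultures reached saturation at 30 °C; 1 = growth at the plate median or of vehicle wells; lower values mean less growth of the strain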
- experimentalSetup: S. cerevisiae deletion strains, growth OD, locus YFL029C, strain CAK1, stronger effect = lower value
Screen size: about 5,500 compounds; about 2,000 (36%) were called active. About 18% were inconclusive and are not listed. The list shows a part of the results.
property: normalized growth
One number for each entry.

normalized growth for `O=S(=O)(Nc1ccccc1Oc1ccccc1)c1ccc(-c2ccno2)s1` ?
0.96

normalized growth for `CSc1sc(C(=O)Sc2ccccc2)cc1S(=O)(=O)C(C)C` ?
0.983

normalized growth for `Clc1ccc(SCc2ccsc2-c2ncns2)cc1` ?
0.969

normalized growth for O=[N+]([O-])c1cccc(C2CC(c3ccccc3)=Nc3ccccc3S2)c1 (stereo unspecified) ?
0.939

normalized growth for `Cc1nn(-c2cccc(Cl)c2)c2oc(=O)cc(C(F)(F)F)c12` ?
0.976

Could you now look at the following molecule, please?
normalized growth for `CCOC(=O)/C(C#N)=C(\Nc1ccc(C(=O)OCC)cc1)SC` ?
0.982
